The following compounds are listed with their measured MIC values.
test system: Escherichia coli; experiment: Broth microdilution MIC (Example 12); type: cell-based; details: E. coli CDC 118; ESBL/NDM
Please state the figure in µg/mL; there is no need to write the unit.

C[C@H]1COc2c(N3CCN(C)CC3)c(F)cc3c(=O)c(C(=O)O)cn1c23	8

# evaluate next
// map C[C@@H](O)[C@H]1C(=O)N2C(C(=O)O)=C(S[C@@H]3CN[C@H](C(=O)N(C)C)C3)[C@H](C)[C@H]12 to recorded MIC (system: Escherichia coli) 0.06

* * *

system: Enterococcus spp.; experiment: Broth microdilution MIC (Example 11); format: cell-based, E. faecalis, E. faecium; conditions: E. faecium MMX 485; VRE vanA, Lev^R Cip^R Ery^R; read-out: MIC
Known MIC of a selection of compounds

Example entries and their recorded answers appear below.
CC[C@H]1OC(=O)[C@H](C)[C@@H](O[C@H]2C[C@@](C)(OC)[C@@H](O)[C@H](C)O2)[C@H](C)[C@@H](O[C@@H]2O[C@H](C)C[C@H](N(C)C)[C@H]2O)[C@](C)(O)C[C@@H](C)C(=O)[C@H](C)[C@@H](O)[C@]1(C)O [Erythromycin]	> 64 mg/L
C[C@H]1COc2c(N3CCN(C)CC3)c(F)cc3c(=O)c(C(=O)O)cn1c23 [Levofloxacin, reference compound]	> 64 mg/L
CC(C)(O/N=C(\C(=O)N[C@@H]1C(=O)N2C(C(=O)[O-])=C(C[n+]3ccccc3)CS[C@H]12)c1csc(N)n1)C(=O)O [Ceftazidime]	> 32 mg/L

Which MIC is listed for C[C@@H](O)[C@H]1C(=O)N2C(C(=O)O)=C(S[C@@H]3CN[C@H](C(=O)N(C)C)C3)[C@H](C)[C@H]12 [Meropenem] ? > 64 mg/L

Using the record for CCC[C@@H]1C[C@@H](C(=O)N[C@@H]([C@H]2O[C@H](SC)[C@H](O)[C@@H](O)[C@H]2O)[C@H](C)Cl)N(C)C1 [clindamycin, reference compound] , report its MIC. > 32 mg/L

* * *

test system: Haemophilus influenzae; assay: Broth microdilution MIC, Haemophilus influenzae clinical isolates; format: cell-based; settings: H. influenzae MMX 5469
# MIC values compiled below
Quick note: give the figure in µg/mL, leave out the unit.

The following molecules have reported results that may help.
CC1(C)S[C@@H]2[C@H](NC(=O)[C@H](N)c3ccccc3)C(=O)N2[C@H]1C(=O)O [AMP]	4
CO/N=C(\C(=O)N[C@@H]1C(=O)N2C(C(=O)O)=C(COC(N)=O)CS[C@H]12)c1ccco1 [CFA]	4
C[C@H]1COc2c(N3CCN(C)CC3)c(F)cc3c(=O)c(C(=O)O)cn1c23 [LEV]	0.015

Next, consider the following molecule.
Give Haemophilus influenzae MIC for CC[C@H]1OC(=O)[C@H](C)[C@@H](O[C@H]2C[C@@](C)(OC)[C@@H](O)[C@H](C)O2)[C@H](C)[C@@H](O[C@@H]2O[C@H](C)C[C@H](N(C)C)[C@H]2O)[C@](C)(O)C[C@@H](C)CN(C)[C@H](C)[C@@H](O)[C@]1(C)O [AZM] 2

* * *

system: vancomycin-intermediate Staphylococcus aureus (VISA); test: Broth microdilution MIC (Example 12); format: cell-based; conditions: S. aureus NRS 18
Measured MIC accompanies every entry in the list below.
Provide the reading as a plain figure in µg/mL.

Before answering, review these 2 worked examples.
CC(=O)NC[C@H]1CN(c2ccc(N3CCOCC3)c(F)c2)C(=O)O1	1
CN[C@H](CC(C)C)C(=O)N[C@H]1C(=O)N[C@@H](CC(N)=O)C(=O)N[C@H]2C(=O)N[C@H]3C(=O)N[C@H](C(=O)N[C@H](C(=O)O)c4cc(O)cc(O)c4-c4cc3ccc4O)[C@H](O)c3ccc(c(Cl)c3)Oc3cc2cc(c3O[C@@H]2O[C@H](CO)[C@@H](O)[C@H](O)[C@H]2O[C@H]2C[C@](C)(N)[C@H](O)[C@H](C)O2)Oc2ccc(cc2Cl)[C@H]1O	4

Continue with the molecule presented below.
Would you mind telling me what MIC value was observed for C[C@H]1COc2c(N3CCN(C)CC3)c(F)cc3c(=O)c(C(=O)O)cn1c23 ? 4

* * *

Each entry below carries its reported MIC.
test system: Haemophilus influenzae; assay: Broth microdilution MIC, Haemophilus influenzae clinical isolates; type: cell-based; conditions: H. influenzae MMX 5458
Return type: number; implicit unit µg/mL.

Some entries whose results are on file:
CO/N=C(\C(=O)N[C@@H]1C(=O)N2C(C(=O)O)=C(COC(N)=O)CS[C@H]12)c1ccco1	16
CC[C@H]1OC(=O)[C@H](C)[C@@H](O[C@H]2C[C@@](C)(OC)[C@@H](O)[C@H](C)O2)[C@H](C)[C@@H](O[C@@H]2O[C@H](C)C[C@H](N(C)C)[C@H]2O)[C@](C)(O)C[C@@H](C)CN(C)[C@H](C)[C@@H](O)[C@]1(C)O	1
CC1(C)S[C@@H]2[C@H](NC(=O)[C@H](N)c3ccccc3)C(=O)N2[C@H]1C(=O)O	0.12

Next compound, please.
Consider the compound C[C@H]1COc2c(N3CCN(C)CC3)c(F)cc3c(=O)c(C(=O)O)cn1c23 and give its measured MIC. 0.015

* * *

tested on: Haemophilus influenzae; assay: Broth microdilution MIC, Haemophilus influenzae clinical isolates; format: cell-based; conditions: H. influenzae MMX 1302
READOUT_TYPE: MIC (µg/mL)
# output: bare number, implied unit µg/mL

Solved entries (count: 3):
CC1(C)S[C@@H]2[C@H](NC(=O)[C@H](N)c3ccccc3)C(=O)N2[C@H]1C(=O)O [AMP]	0.25
CO/N=C(\C(=O)N[C@@H]1C(=O)N2C(C(=O)O)=C(COC(N)=O)CS[C@H]12)c1ccco1 [CFA]	2
C[C@H]1COc2c(N3CCN(C)CC3)c(F)cc3c(=O)c(C(=O)O)cn1c23 [LEV]	0.015

# context switch: different compound, same MIC
Entry CC[C@H]1OC(=O)[C@H](C)[C@@H](O[C@H]2C[C@@](C)(OC)[C@@H](O)[C@H](C)O2)[C@H](C)[C@@H](O[C@@H]2O[C@H](C)C[C@H](N(C)C)[C@H]2O)[C@](C)(O)C[C@@H](C)CN(C)[C@H](C)[C@@H](O)[C@]1(C)O [AZM] , system Haemophilus influenzae: what MIC was measured? 2

* * *

experiment: Particle size distribution of BisEDT samples vs processing conditions; format: physicochemical; conditions: crystalline BisEDT samples
Recorded D(10), one value per entry.
Give just the number in μm; leave the unit off.

C1C[S][Bi]([S]CC[S][Bi]2[S]CC[S]2)[S]1 [Sample 9]	0.67

Suppose we examine the compound C1C[S][Bi]([S]CC[S][Bi]2[S]CC[S]2)[S]1 [Sample 1] ; what D(10) value has been reported? 0.80

Need D(10) of C1C[S][Bi]([S]CC[S][Bi]2[S]CC[S]2)[S]1 [Sample 12] , thanks. 0.37

Returns the measured D(10) for the input compound. Input: C1C[S][Bi]([S]CC[S][Bi]2[S]CC[S]2)[S]1 [Sample 2] 0.58

// query D(10) value for entry C1C[S][Bi]([S]CC[S][Bi]2[S]CC[S]2)[S]1 [Sample 14] 0.36

Please report the recorded D(10) for C1C[S][Bi]([S]CC[S][Bi]2[S]CC[S]2)[S]1 [Sample 15] . 0.32

Param item = C1C[S][Bi]([S]CC[S][Bi]2[S]CC[S]2)[S]1 [Sample 7] ; retrieve measured D(10). 0.39

// D(10) lookup, key: C1C[S][Bi]([S]CC[S][Bi]2[S]CC[S]2)[S]1 [Sample 10] 0.36

Reported D(10) for C1C[S][Bi]([S]CC[S][Bi]2[S]CC[S]2)[S]1 [Sample 3] : what is it? 0.59

Quick one: D(10) of C1C[S][Bi]([S]CC[S][Bi]2[S]CC[S]2)[S]1 [Sample 8] ? 0.36

* * *

system: Burkholderia cepacia complex; assay type: cell-based, Burkholderia spp.; conditions: B. cenocepacia isolate 0548 (CIP-R); initial MIC testing
READOUT_TYPE: MIC (µg/mL)
Express the result in µg/mL but write the number alone.

Some solved entries appear below for comparison.
NCC[C@H](O)C(=O)N[C@@H]1C[C@H](N)[C@@H](O[C@H]2O[C@H](CN)[C@@H](O)[C@H](O)[C@H]2O)[C@H](O)[C@H]1O[C@H]1O[C@H](CO)[C@@H](O)[C@H](N)[C@H]1O	256
C[C@@H](O)[C@H]1C(=O)N2C(C(=O)O)=C(S[C@@H]3CN[C@H](C(=O)N(C)C)C3)[C@H](C)[C@H]12	4
C[C@H]1[C@H](NC(=O)/C(=N\OC(C)(C)C(=O)O)c2csc(N)n2)C(=O)N1S(=O)(=O)O	64

// switching to the query compound
Quick one: MIC for NC[C@H]1O[C@H](O[C@H]2[C@H](O)[C@@H](O[C@H]3O[C@H](CO)[C@@H](O)[C@H](N)[C@H]3O)[C@H](N)C[C@@H]2N)[C@H](N)C[C@@H]1O ? 64

All values here come from patent US20230124862A1.
